Reported GFP response, % of DMSO values for the following compounds.
- assay.summary: TOR pathway CIT2 reporter hit retest – S. cerevisiae, GFP fusion, cherry picks, mother/daughter gates, confirmation (AID 2274)
- study.conditions: S. cerevisiae CIT2-GFP strain, flow cytometry, 3 h; measured here: daughter cell gate; at 10 µM; stronger effect = higher value
Reply with just the number (in %).

[
  {
    "compound": "Cc1ccc(SC(CC(=O)c2ccc(C(C)(C)C)cc2)C(=O)O)cc1 (stereo unspecified)",
    "u": "%",
    "GFP response, % of DMSO": 90.5
  },
  {
    "compound": "Oc1ccc2ccccc2c1/C=N/Nc1nnc(-c2ncc[nH]2)c2ccccc12",
    "u": "%",
    "GFP response, % of DMSO": 114
  },
  {
    "compound": "CC(C)(C)C(=O)/C=c1\\s/c(=C\\c2ccc(-c3ccc([N+](=O)[O-])cc3)o2)c(=O)n1CC(=O)NC(N)=O",
    "u": "%",
    "GFP response, % of DMSO": 100
  },
  {
    "compound": "CS(=O)(=O)Nc1cccc(C(=O)CC2(O)C(=O)Nc3ccc(Br)cc32)c1 (stereo unspecified)",
    "u": "%",
    "GFP response, % of DMSO": 90.2
  }
]

Query: Dear colleague, I am looking for the recorded GFP response, % of DMSO of the following compound: C#C[C@]1(O)CC[C@H]2[C@@H]3CCC4=CC(=O)CC[C@@H]4[C@H]3CC[C@@]21CC
Reply: 99.7

Query: Would you mind doing C1COC(NC(C2CC2)C2CC2)=N1 as well?
Reply: 101
